Provenance of the data: paper PMC10436550

- Assay Explanation: Toxicokinetics, plasma LPM3480392 after intravenous administration
- Format: in vivo, Sprague Dawley (SD) rats
- Setup Conditions: female, Sprague-Dawley, rat, plasma, intravenous, 2.4 mg/kg/day, 2.4 mg/kg/day iv; 28th dosing day; F; read-out: C2min (The 1st dosing)
- Description: Blood samples from animals in LPM3480392 groups were collected at predose and 2 min, 30 min, 1 h and 4 h postdose of the 1st dosing on Days 1 and 28; at 2 min and 4 h postdose of the 2nd dosing on Days 1 and 28; at 2 min, 1 h and 4 h postdose the 3rd dosing on Days 1 and 28. Animals in control group were sampled at predose and 2 min postdose of the 1st dosing on Days 1 and 28. […] TK parameters (AUC, Cmax, Tmax) were calculated by Phoenix WinNonlin (Pharsight) 8.2. […]
Measured Property: concentration at 2 min (ng/mL)
Express the result in ng/mL but write the number alone.

(Q) Tell me the measured concentration at 2 min of Fc1ccc([C@]2(CCNCc3cccc(Cl)c3)CCO[C@]3(CCOC3)C2)nc1 , please.
(A) 356
